Property: pIC50; scope: individual molecules
Molecular target: KRAS G12S (Homo sapiens, UniProt P01116+P62937, G12S)
Sequence (P01116 1-169 isoform P01116-2 G12S limits assumed): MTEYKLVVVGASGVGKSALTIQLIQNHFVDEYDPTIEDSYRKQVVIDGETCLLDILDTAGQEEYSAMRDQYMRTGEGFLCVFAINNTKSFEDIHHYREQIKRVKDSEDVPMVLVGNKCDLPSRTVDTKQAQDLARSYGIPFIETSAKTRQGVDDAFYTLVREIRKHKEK
Sequence (P62937 whole entry): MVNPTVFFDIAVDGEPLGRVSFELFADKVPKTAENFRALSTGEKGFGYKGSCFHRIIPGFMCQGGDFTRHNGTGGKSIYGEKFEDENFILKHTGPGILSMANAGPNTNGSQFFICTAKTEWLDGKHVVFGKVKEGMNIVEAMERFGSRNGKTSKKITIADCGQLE
Assay: Disruption of BRAF RBD interaction with Ras (FRET / MOA assay, with Cyclophilin A)
Assay type: biochemical
Details: read-out: KRAS G12S FRET data, IC50
pIC50: −log10 of the molar value.

Molecule | Target System | pIC50
CCn1c(-c2cnccc2COC)c2c3cc(ccc31)-c1cc(O)cc(c1)C[C@H](NC(=O)[C@H](C(C)C)N(C)C(=O)[C@@H]1CCOC1)C(=O)N1CCC[C@H](N1)C(=O)OCC(C)(C)C2 [Example A94] | KRAS G12S (Homo sapiens, UniProt P01116+P62937, G12S) | 6.00 to 7.00
CCn1c(-c2cccnc2COC)c2c3cc(ccc31)-c1cc(O)cc(c1)C[C@H](NC(=O)[C@@H](C(C)C)N(C)C(=O)[C@H]1CCN(C(=O)C#CCN(C)C)C1)C(=O)N1CCC[C@H](N1)C(=O)OCC(C)(C)C2 [Example A156] | KRAS G12S (Homo sapiens, UniProt P01116+P62937, G12S) | < 5.00
CCn1c(-c2cccnc2[C@H](C)OC)c2c3cc(ccc31)-c1csc(n1)C[C@H](NC(=O)[C@H](C(C)C)N(C)C(=O)N1CC3(CC(N(C)CCOC)C3)C1)C(=O)N1CCC[C@H](N1)C(=O)OCC(C)(C)C2 (atropisomer, axis not shown) [Example A532] | KRAS G12S (Homo sapiens, UniProt P01116+P62937, G12S) | 6.00 to 7.00
C=CC(=O)N1CC(OC[C@H](C(=O)N[C@H]2Cc3cccc(c3)-c3ccc4c(c3)c(c(-c3cccnc3[C@H](C)OC)n4CC(F)(F)F)CC(C)(C)COC(=O)[C@@H]3CCCN(N3)C2=O)C(C)C)C1 [Example A453] | KRAS G12S (Homo sapiens, UniProt P01116+P62937, G12S) | < 5.00

###

Biological target: KRAS G13C (Homo sapiens, UniProt P01116+P62937, G13C)
Sequence (P01116 1-169 isoform P01116-2 G13C limits assumed): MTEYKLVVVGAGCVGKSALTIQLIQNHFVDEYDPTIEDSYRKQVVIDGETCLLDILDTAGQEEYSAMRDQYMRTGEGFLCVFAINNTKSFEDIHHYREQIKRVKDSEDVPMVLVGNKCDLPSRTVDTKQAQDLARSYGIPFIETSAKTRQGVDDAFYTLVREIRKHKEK
Sequence (P62937 whole entry): as the sequence (P62937 whole entry) above
Assay: Ras-Raf disruption / FRET / MOA assay (BRAF RBD)
Type: biochemical
Settings: KRAS G13C FRET data IC50, Ras-Raf disruption, with Cyclophilin A
pIC50: −log10 of the molar value.
Property Name: pIC50

Compound | Target System | Observed
CCn1c(-c2cccnc2[C@H](C)OC)c2c3cc(ccc31)-c1cc(O)cc(c1)C[C@H](NC(=O)[C@H](C(C)C)N(C)C(=O)C13CC(CN1C(=O)[C@@H]1CN1)C3)C(=O)N1CCC[C@H](N1)C(=O)OCC(C)(C)C2 | KRAS G13C (Homo sapiens, UniProt P01116+P62937, G13C) | 6.00 to 7.00
CCn1c(-c2cccnc2[C@H](C)OC)c2c3cc(ccc31)-c1cc(O)cc(c1)C[C@H](NC(=O)[C@H](C(C)C)N(C)C(=O)CN(C)C(=O)[C@H]1N[C@@H]1C1COC1)C(=O)N1CCC[C@H](N1)C(=O)OCC(C)(C)C2 | KRAS G13C (Homo sapiens, UniProt P01116+P62937, G13C) | > 8.00
CCn1c(-c2cccnc2[C@H](C)OC)c2c3cc(ccc31)-c1cc(O)cc(c1)C[C@H](NC(=O)[C@H](C(C)C)N(C)C(=O)CN(C)C(=O)[C@@H]1CN1C1COC1)C(=O)N1CCC[C@H](N1)C(=O)OCC(C)(C)C2 (some centres unmarked) | KRAS G13C (Homo sapiens, UniProt P01116+P62937, G13C) | 7.00 to 8.00
CCn1c(-c2cccnc2[C@H](C)OC)c2c3cc(ccc31)-c1cc(O)cc(c1)C[C@H](NC(=O)[C@H](C(C)C)N(C)C(=O)CN(C)C(=O)[C@@H]1N[C@@H]1C(F)(F)F)C(=O)N1CCC[C@H](N1)C(=O)OCC(C)(C)C2 | KRAS G13C (Homo sapiens, UniProt P01116+P62937, G13C) | > 8.00
CCn1c(-c2cccnc2[C@H](C)OC)c2c3cc(ccc31)-c1cc(O)cc(c1)C[C@H](NC(=O)[C@H](C(C)C)N(C)C(=O)CN(C)C(=O)[C@H]1N[C@H]1C1CCC1)C(=O)N1CCC[C@H](N1)C(=O)OCC(C)(C)C2 | KRAS G13C (Homo sapiens, UniProt P01116+P62937, G13C) | 7.00 to 8.00
CCn1c(-c2cccnc2[C@H](C)OC)c2c3cc(ccc31)-c1cc(O)cc(c1)C[C@H](NC(=O)[C@H](C(C)C)N(C)C(=O)CN(C)C(=O)[C@@H]1CN1CCCOC(C)=O)C(=O)N1CCC[C@H](N1)C(=O)OCC(C)(C)C2 (some centres unmarked) | KRAS G13C (Homo sapiens, UniProt P01116+P62937, G13C) | 7.00 to 8.00
CCn1c(-c2cccnc2[C@H](C)OC)c2c3cc(ccc31)-c1cc(O)cc(c1)C[C@H](NC(=O)[C@H](C(C)C)N(C)C(=O)CNC(=O)[C@@H]1CN1)C(=O)N1CCC[C@H](N1)C(=O)OCC(C)(C)C2 | KRAS G13C (Homo sapiens, UniProt P01116+P62937, G13C) | 7.00 to 8.00
CCn1c(-c2cccnc2[C@H](C)OC)c2c3cc(ccc31)-c1cc(O)cc(c1)C[C@H](NC(=O)[C@H](C(C)C)N(C)C(=O)CN(C)C(=O)[C@H]1N[C@H]1C(C)C)C(=O)N1CCC[C@H](N1)C(=O)OCC(C)(C)C2 | KRAS G13C (Homo sapiens, UniProt P01116+P62937, G13C) | 7.00 to 8.00

Reference source: patent US20230233569A1
